Target: DNA repair protein REV1 (Homo sapiens)
Sequence (Q9UBZ9 whole entry, the tested form may be a part): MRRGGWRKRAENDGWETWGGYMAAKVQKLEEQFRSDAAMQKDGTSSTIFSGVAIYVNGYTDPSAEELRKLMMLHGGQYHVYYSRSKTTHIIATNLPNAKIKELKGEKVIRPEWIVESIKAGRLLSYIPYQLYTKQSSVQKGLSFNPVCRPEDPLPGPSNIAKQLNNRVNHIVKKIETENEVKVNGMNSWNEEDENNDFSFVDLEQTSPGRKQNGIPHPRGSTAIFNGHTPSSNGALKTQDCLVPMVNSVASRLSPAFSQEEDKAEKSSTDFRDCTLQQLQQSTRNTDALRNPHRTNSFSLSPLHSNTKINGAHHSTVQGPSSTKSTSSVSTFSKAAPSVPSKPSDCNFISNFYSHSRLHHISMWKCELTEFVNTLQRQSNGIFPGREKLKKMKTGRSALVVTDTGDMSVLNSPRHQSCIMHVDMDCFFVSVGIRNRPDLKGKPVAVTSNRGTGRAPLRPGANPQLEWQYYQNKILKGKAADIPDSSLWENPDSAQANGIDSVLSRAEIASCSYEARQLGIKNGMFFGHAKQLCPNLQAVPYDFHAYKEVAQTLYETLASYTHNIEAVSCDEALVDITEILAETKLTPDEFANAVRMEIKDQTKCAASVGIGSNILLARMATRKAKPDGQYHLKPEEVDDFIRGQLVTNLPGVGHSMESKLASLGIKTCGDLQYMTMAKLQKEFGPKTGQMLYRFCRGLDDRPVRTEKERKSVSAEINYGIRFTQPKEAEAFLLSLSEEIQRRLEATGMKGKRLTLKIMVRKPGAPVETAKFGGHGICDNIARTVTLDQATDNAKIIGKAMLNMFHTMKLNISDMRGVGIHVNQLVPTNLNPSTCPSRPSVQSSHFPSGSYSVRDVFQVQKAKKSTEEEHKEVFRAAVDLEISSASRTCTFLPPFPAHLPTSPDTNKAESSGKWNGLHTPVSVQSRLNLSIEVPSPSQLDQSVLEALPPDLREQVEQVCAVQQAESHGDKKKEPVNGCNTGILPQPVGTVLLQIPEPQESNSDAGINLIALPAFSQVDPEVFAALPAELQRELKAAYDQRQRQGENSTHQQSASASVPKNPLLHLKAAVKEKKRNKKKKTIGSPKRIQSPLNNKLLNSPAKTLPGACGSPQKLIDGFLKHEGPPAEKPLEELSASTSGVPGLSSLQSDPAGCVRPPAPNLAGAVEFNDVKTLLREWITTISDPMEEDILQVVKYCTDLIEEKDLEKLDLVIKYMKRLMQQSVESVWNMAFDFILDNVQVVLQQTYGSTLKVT
Test: Displacement of FAM-labelled polkappa-RIR peptide from recombinant human C-terminal Rev1 (1158 to 1251 residues) expressed in Escherichia coli BL21(DE3) after 1 hr by fluorescence polarization assay
quantity: Ki (µM)
Answers are plain numbers, in µM.

CCCc1cc(C(=O)OCC)c(NC(=O)C2CCN(C(C)=O)CC2)s1 :: 11.6
CC(=O)N1CCC(C(=O)Nc2sc3c(c2C(=O)NC2CC2)CCC(C)C3)CC1 (stereo not drawn) :: 4.6

Query compound follows.
For "O=C(CN1CCN(c2ccc(F)cc2)CC1)Nc1ccccc1" , what is its reported Ki? 46.6
